measurement.description: clinical
Parameters: species or system humans
cond: human, in vivo
quantity.kind: half-life

Asked: Report half-life for CCN(C(=O)c1c(O)c2c(Cl)cccc2n(C)c1=O)c1ccccc1 please.
Given back: ~3.33 days

====

measurement.description: clinical
Parameters: species or system humans
cond: human, in vivo
quantity.kind: Vd

Asked: Report Vd for CCN(C(=O)c1c(O)c2c(Cl)cccc2n(C)c1=O)c1ccccc1 please.
Given back: ~10 L
